I'd be grateful if you could share measured F for these entries.
- Measurement Context: male, CD1, mouse, in vivo
Note: unit % is implicit; provide only the numeric part.

Q. I'd like to know its F. The compound in question is Cc1sc2c(c1C)C(c1ccc(Cl)cc1)=N[C@@H](CC(=O)NCCCN1CCCC1)c1nnc(C)n1-2 [Compound 604]
A. 7

Q. I'd like to know its F. The compound in question is Cc1sc2c(c1C)C(c1ccc(Cl)cc1)=N[C@@H](CC(=O)NCCCN1CCC(N3CCCCC3)CC1)c1nnc(C)n1-2 [Compound 602]
A. 2

Q. I'd like to know its F. The compound in question is Cc1sc2c(c1C)C(c1ccc(Cl)cc1)=N[C@@H](CC(=O)NCC1CCN(CCN(C)C)CC1)c1nnc(C)n1-2 [Compound 601]
A. 4

Q. I'd like to know its F. The compound in question is Cc1sc2c(c1C)C(c1ccc(Cl)cc1)=N[C@@H](CC(=O)N1CCn3c(nnc3C(F)(F)F)C1)c1nnc(C)n1-2 [Compound 605]
A. 6

Q. I'd like to know its F. The compound in question is Cc1sc2c(c1C)C(c1ccc(Cl)cc1)=N[C@@H](CC(=O)N1CCC(N3CCCCC3)CC1)c1nnc(C)n1-2 [Compound 603]
A. 20
